Test system: cryopreserved hepatocytes from Sprague Dawley rats
run description: metabolic stability in rat hepatocytes
Assay type: in vitro ADME
stated conditions: 1 μM, 60 min incubation, percentage turnover
Classification field: criterion met = Rat (% TO) 60 min at or over 30 % TO; criterion not met = Rat (% TO) 60 min under 30 % TO.

Item CCN1C[C@H](C)n2c(c(O)c3c(=O)n4nc(c32)N(C)S(=O)(=O)CCCCCOc2cc(F)ccc2C4)C1=O with Rat (% TO) 60 min of 30 % TO or above?
criterion not met

Item CCN1C[C@H](C)n2c(c(O)c3c(=O)n4nc(c32)N2CCN(CC2)C(=O)CCCOc2cc(F)ccc2C4)C1=O with Rat (% TO) 60 min of 30 % TO or above?
criterion met

Item CCN1C[C@H](C)n2c(c(O)c3c(=O)n4nc(c32)N(C)S(=O)(=O)CCCCOc2cc(F)ccc2C4)C1=O with Rat (% TO) 60 min of 30 % TO or above?
criterion met

Item CC(C)N1C[C@H](C)n2c(c(O)c3c(=O)n4nc(c32)N(C)S(=O)(=O)CCCCCOc2cc(F)ccc2C4)C1=O with Rat (% TO) 60 min of 30 % TO or above?
criterion met

Item CCN1C[C@@H](C)n2c(c(O)c3c(=O)n(Cc4ccc(F)c(Cl)c4)nc(N4CCN(C)S4(=O)=O)c32)C1=O [Compound 54r, reference compound] with Rat (% TO) 60 min of 30 % TO or above?
criterion met

Item CC(C)N1C[C@H](C)n2c(c(O)c3c(=O)n4nc(c32)N(C)S(=O)(=O)CCCCOc2cc(F)ccc2C4)C1=O with Rat (% TO) 60 min of 30 % TO or above?
criterion met
